Exercise: for every item that follows, state its recorded IC50.
target-under-test: human recombinant serotonin 5-HT2A receptor (Homo sapiens, UniProt P28223)
Sequence (P28223 whole entry): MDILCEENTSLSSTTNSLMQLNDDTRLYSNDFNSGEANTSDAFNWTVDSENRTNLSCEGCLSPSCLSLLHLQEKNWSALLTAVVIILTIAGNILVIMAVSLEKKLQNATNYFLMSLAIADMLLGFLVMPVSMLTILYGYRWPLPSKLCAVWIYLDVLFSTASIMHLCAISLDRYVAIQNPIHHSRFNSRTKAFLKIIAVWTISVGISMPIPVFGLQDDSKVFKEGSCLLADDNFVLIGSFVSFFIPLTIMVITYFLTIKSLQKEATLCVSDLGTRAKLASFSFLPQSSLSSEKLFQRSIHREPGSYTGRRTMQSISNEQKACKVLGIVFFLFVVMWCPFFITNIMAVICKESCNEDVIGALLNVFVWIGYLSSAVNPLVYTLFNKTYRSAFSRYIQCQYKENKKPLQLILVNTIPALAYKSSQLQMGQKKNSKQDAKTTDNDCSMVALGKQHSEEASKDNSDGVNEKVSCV
protocol-details: Binding affinity for serotonin 5-HT2A receptor ([3H]Ketanserin)
experimental-context: CHO-K1 expressed receptor, 1 nM [3H]Ketanserin
Structures can show the parent of a compound that is named as a salt.
# value in nM; strip the unit string

Req: Item under review: Cc1c(C(=O)NCCCN2CCN(c3cccc(Cl)c3)CC2)cc(-c2ccccc2)n1-c1ccc(F)cc1 [Example 14] . Reported IC50?
Resp: 22.9

Req: I am curious: what IC50 value has been reported for Cc1c(C(=O)NCCN2CCN(c3cccc(Cl)c3Cl)CC2)cc(-c2ccc(Cl)cc2)n1C [Example 68, hydrochloride] ?
Resp: 292

Req: Suppose we examine the compound Cc1c(C(=O)NCCCN2CCN(c3cccc(Cl)c3Cl)CC2)cc(-c2ccncc2)n1C [Example 106] ; what IC50 value has been reported?
Resp: 39

Req: Fill in the blank: the reported IC50 of Cc1c(C(=O)NCCCN2CCN(c3cccc(Cl)c3)CC2)cc(-c2ccccc2)n1CC1CCCCC1 [Example 20] is ____.
Resp: 1070

====

target-under-test: human recombinant serotonin 5-HT2A receptor (Homo sapiens, UniProt P28223)
protocol-details: Binding affinity for serotonin 5-HT2A receptor ([3H]Ketanserin)
experimental-context: CHO-K1 expressed receptor, 1 nM [3H]Ketanserin
Experimental: Receptor binding affinities of the compounds for serotonin receptors were measured by the method described in the literature [Park W K et al., Pharmacol Biochem Behav. 2005, 82(2), 361-372]. […] The binding affinity (IC50) of a compound for the receptor was calculated by computerized nonlinear regression analysis (GraphPad Prism Program, San Diego, USA) using 7-8 varied concentrations of the compound run in duplicate tubes.
pIC50: −log10 of the molar value. Where a name gives a salt, the structure may show the parent alone.
Answer NO if pIC50 is under 7, and YES if it is 7 or more.

Req: Can "Cc1cccc(N2CCN(CCCNC(=O)c3cc(-c4ccccc4)n(Cc4ccccc4)c3C)CC2)c1C" be said to have pIC50 at or above 7?
Resp: NO

Req: Does pIC50 meet or surpass 7 for "COc1cccc(N2CCN(CCCNC(=O)c3cc(-c4ccccc4)n(C)c3C)CC2)c1OC" ?
Resp: NO

Req: Textbook exercise: given the entry "Cc1cccc(N2CCN(CCCNC(=O)c3cc(-c4ccccc4)n(-c4ccc(F)cc4)c3C)CC2)c1C" , state whether its pIC50 is greater than or equal to 7.
Resp: YES

Req: Quick check: does CCCCCCn1c(-c2ccccc2)cc(C(=O)NCCCN2CCN(c3cccc(Cl)c3Cl)CC2)c1C [Example 72, hydrochloride] have pIC50 greater than or equal to 7?
Resp: NO

====

target-under-test: human recombinant serotonin 5-HT2A receptor (Homo sapiens, UniProt P28223)
protocol-details: Binding affinity for serotonin 5-HT2A receptor ([3H]Ketanserin)
experimental-context: CHO-K1 expressed receptor, 1 nM [3H]Ketanserin
Counter-ions that a name gives are not always drawn.
Just a reminder that ties go to false (0): only IC50 strictly below 0.05 µM counts as true (1).

Req: Lab log: compare recorded IC50 with 0.05 µM; is it strictly lower for Cc1c(C(=O)NCCCN2CCN(c3cccc(Cl)c3Cl)CC2)cc(-c2ccccn2)n1C [Example 92, dihydrochloride] ?
Resp: true (1)

Req: Check if IC50 falls below 0.05 µM for CCn1c(-c2ccccc2)cc(C(=O)NCCCN2CCN(c3cccc(Cl)c3Cl)CC2)c1C [Example 11] .
Resp: false (0)

Req: State whether 0.05 µM exceeds IC50 recorded for CCn1c(-c2ccccc2)cc(C(=O)NCCCCN2CCN(c3cccc(Cl)c3Cl)CC2)c1C [Example 43, hydrochloride] .
Resp: true (1)

Req: Please let me know if Cc1[nH]c(-c2ccccc2)cc1C(=O)NCCN1CCN(c2cccc(Cl)c2Cl)CC1.Cl [Example 48, hydrochloride] shows IC50 below 0.05 µM.
Resp: false (0)

Req: A record lists Cc1c(Cl)cccc1N1CCN(CCNC(=O)c2cc(C(C)(C)C)n(C)c2C)CC1 [Example 187] . Is its IC50 below 0.05 µM?
Resp: false (0)

Req: Lab note: confirm whether the reported IC50 for this compound is below 0.05 µM, equality not counting. compound: COc1cccc(-c2cc(C(=O)NCCCN3CCN(c4cccc(Cl)c4Cl)CC3)c(C)[nH]2)c1 [Example 83, hydrochloride]
Resp: true (1)

Req: # TODO verify IC50 < 0.05 µM strictly for this compound: CCCn1c(-c2ccc(Cl)cc2)cc(C(=O)NCCCN2CCN(c3cccc(C)c3C)CC2)c1C [Example 65, hydrochloride]
Resp: false (0)

Data origin: patent US8895558B2
